System: rabbit platelet
Test: ADP-induced aggregation in rabbit platelets (AG-II Aggregometer)
Format: cell-based
Settings: Oryctolagus cuniculus, Platelet; 10^-4 mole; read-out: Inhibition effect on ADP-induced aggregation in rabbit platelet
The following compounds are listed with their measured inhibition at 100 µM (stock) values.
OUTCOME MEASURE: inhibition at 100 µM (stock) (%)

* CCCNC(=O)CC(C)COc1ccc2c(c1)CCC(=O)N2 (stereo not drawn) [compound 45, reference compound] | 32
* CN(C(=O)CCCOc1cccc2c1CCC(=O)N2)C1CCCCC1 | 73.6
* COc1ccc(CCN(C)C(=O)CCCOc2ccc3[nH]c(=O)ccc3c2)cc1OC | 70.4
* C=CCN(C(=O)CCCOc1ccc2c(c1)CCC(=O)N2)C1CCCCC1 | 41.3
* O=C1CCc2c(cccc2OCC(=O)N2CCOCC2)N1 [compound 42, reference compound] | 13
* O=C(CCCOc1ccc2[nH]c(=O)ccc2c1)NC1CCCCC1 | 39.6
* CC(COc1ccc2[nH]c(=O)ccc2c1)CC(=O)N(C)C1CCCCC1 (stereo not drawn) | 92.8
* COc1ccc(CCN(Cc2ccccc2)C(=O)CCCOc2ccc3c(c2)CCC(=O)N3)cc1OC | 87.5
* CCOC(=O)CCCOc1ccc2c(c1)CCC(=O)N2 [compound 29, reference compound] | 100

###

Assay: Concentration in blood of male Wister rats
Type: in vivo
Conditions: rat, plasma, 30 mg/kg, 30 mg/kg water suspension, 2 hr.
OUTCOME MEASURE: concentration at 2 h

• CCN(C(=O)CCCOc1ccc2[nH]c(=O)ccc2c1)c1ccccc1 = 1370 ng/mL
• CN(C(=O)CCCOc1cccc2c1CCC(=O)N2)C1CCCCC1 = 2240 ng/mL
• O=C1CCc2cc(OCCCC(=O)N(C3CCCCC3)C3CCCCC3)ccc2N1 = 1740 ng/mL
• CC1CCCCC1N(C)C(=O)CCCOc1ccc2[nH]c(=O)ccc2c1 (stereo not shown) = 1620 ng/mL

###

Assay: Concentration in blood of male Wister rats
Assay type: in vivo
Conditions: rat, plasma, 30 mg/kg, 30 mg/kg water suspension, 1 hr.
Reported concentration at 1 h values follow for various compounds
OUTCOME MEASURE: concentration at 1 h (µg/mL)

• CC1CCCCC1N(C)C(=O)CCCOc1ccc2[nH]c(=O)ccc2c1 (stereo not shown) = 1.05
• CN(C(=O)CCCOc1cccc2c1CCC(=O)N2)C1CCCCC1 = 1.53
• CN(C(=O)CCCOc1ccc2[nH]c(=O)ccc2c1)C1CCCCC1 = 0.9
• CCN(C(=O)CCCOc1ccc2[nH]c(=O)ccc2c1)c1ccccc1 = 0.95
• CCOC(=O)CCCOc1ccc2c(c1)CCC(=O)N2 [compound 29, reference compound] = 0.01
• O=C1CCc2cc(OCCCC(=O)N(C3CCCCC3)C3CCCCC3)ccc2N1 = 1.32
• CCOC(=O)CCCOc1ccc2[nH]c(=O)ccc2c1 [compound 34, 6-(3-Ethoxycarbonylpropoxy)carbostyril, reference compound] = 0.01

###

Parameter concentration at 1 h: see the listing below.
Test: Concentration in blood of male beagle dogs
Type: in vivo
Conditions: dog, plasma, 30 mg/kg, 30 mg/kg water suspension, 1 hr.
Description: A water suspension of test compound was administered at the dose of 30 mg/kg to the overnight fasted male Wister rats and male beagle dogs, and after a predetermined period of time, blood was collected from said animals to obtain plasma. 2 to 3 Milliliters of 0.1 N-NaOH and 2 ml of CHCl3 were added to 1 ml of the obtained plasma, and the mixture was shaken and extracted in a shaker for 2 hours, and after centrifugal separation, the organic layer was washed with 2 ml of 0.1 N-HCl. […]
OUTCOME MEASURE: concentration at 1 h (ng/mL)

- CC1CCCCC1N(C)C(=O)CCCOc1ccc2[nH]c(=O)ccc2c1 (stereo not drawn) [compound 1]: 280
- CCN(C(=O)CCCOc1ccc2[nH]c(=O)ccc2c1)c1ccccc1 [compound 20]: 320
- CN(C(=O)CCCOc1ccc2[nH]c(=O)ccc2c1)C1CCCCC1 [compound 16]: 230
